B1: FANCE (parent)
chain: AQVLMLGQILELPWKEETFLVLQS

- Variants of: B1
- Test Description: protein stability index of a GFP-peptide fusion (GPS, HEK-293T) (PSI 1-6); higher = more stable;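 also: lentivirally expressed fusions sorted by FACS into six bins by GFP to DsRed ratio, PSI derived from sequencing read proportions per bin multiplied by bin number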
- Experimental Parameters: c terminus: a fixed tail appended
Record true whenever protein stability index is at 2 or higher; record false when lower.

As a guide, the following entries are already answered.
changes=E11F class_name=true
changes=L6Q class_name=false
changes=A1D class_name=false
changes=I9E class_name=false
changes=L22Y class_name=true
changes=L6F class_name=true
changes=E17Y class_name=true
changes=V3H class_name=true

Hello, I need to know if `A1E` has measured protein stability index not below 2. Thanks!
true

Let us now turn to `L22F`
true

Let us now turn to `M5C`
false

Let us now turn to `K15S`
true

Let us now turn to `L4E`
true

Let us now turn to `E16D`
false

Let us now turn to `Q23P`
true

Let us now turn to `V3P`
false

Let us now turn to `Q8E`
false

Let us now turn to `L6W`
true

Let us now turn to `Q8L`
true
